Test system: SNB-75 CNS
Assay: NCI tumour cell line growth inhibition, 48 h
QUANTITY KIND: TGI

> print(dat)
                                   compound  study.system  recorded.result
1  CNC(=O)c1ccc(N2C(=S)N(c3ccc(C#N)c(C(F)(F)F)c3)C(=O)C2(C)C)cc1F    SNB-75 CNS        > 79.9 µM
2  Clc1ccc(OCc2nnc(CCCCCCCCc3nnc(COc4ccc(Cl)cc4Cl)n3Nc3ccccc3)n2Nc2ccccc2)c(Cl)c1    SNB-75 CNS          70.3 µM
3                              O=c1ccs[nH]1    SNB-75 CNS          36.5 µM
4  COc1ccc(/C(COc2ccc3c(=O)c(-c4ccccc4)coc3c2)=N\O)cc1    SNB-75 CNS        > 70.9 µM
5    COc1ccc(P2(=S)Oc3ccccc3-c3ccccc3O2)cc1    SNB-75 CNS         > 100 µM

Record request: TGI value, item C=C1C(=O)OC2C1CCC(C)C1C=CC(=O)C12C (stereo unspecified) 26.8 µM

Record request: TGI value, item `CCCN(CCC)c1ccc(/C=C/c2ccc3cc(OCC)ccc3n2)cc1` > 100 µM

* * *

Tested on: SF-539 CNS
Assay: NCI tumour cell line growth inhibition, 48 h
In this section we review reported TGI values for a set of molecules.

Please review the following examples before continuing.
MOLECULE	TGI
COc1cc(N2CCC(N3CCN(C)CC3)CC2)ccc1Nc1ncnc(Nc2ccccc2S(=O)(=O)C(C)C)n1	14.6 µM
CC(=O)OC[C@]1(C)CCCC2(C)C1CCC1C=C(C)[C@H]3CCC12C3 (stereo partly drawn)	66.8 µM
O=C(c1ccccc1)c1c(-c2ccccc2)sc2nc3ccccc3nc12	> 100 µM
CN(C)CCCn1c(Cc2ccc(Cl)cc2)nc2cc(C(F)(F)F)ccc21	32.2 µM
Cn1c(=O)n2n(c1=O)C(S(=O)(=O)c1ccccc1)C2 (stereo not drawn)	> 100 µM

Record request: TGI value, item `O=C1/C(=C/c2ccc(OC(=O)c3ccccc3)cc2)CCC/C1=C\c1ccc(OC(=O)c2ccccc2)cc1` > 100 µM

Record request: TGI value, item `O=C1NC(=O)C(c2ccccc2Cl)=C1Nc1cc(Cl)c(O)c(Cl)c1` > 25 µM

Record request: TGI value, item C=C(NC(=O)C(=C)NC(=O)c1csc(C2=NC3c4csc(n4)C4NC(=O)c5csc(n5)C(C(C)(O)C(C)O)NC(=O)C5CSC(=N5)C(=CC)NC(=O)C(C(C)O)NC(=O)c5csc(n5)C3(CC2)NC(=O)C(C)NC(=O)C(=C)NC(=O)C(C)NC(=O)C(C(C)CC)NC2C=Cc3c(C(C)O)cc(nc3C2O)C(=O)OC4C)n1)C(N)=O (stereo not drawn) 42.9 µM

Record request: TGI value, item `CN1CC(=O)N(C)c2ncn(Cc3ccccc3)c2C1=O` > 100 µM

* * *

System: MALME-3M melanoma
Experiment: NCI tumour cell line growth inhibition, 48 h
QUANTITY KIND: GI50

Please review the following examples before continuing.
> print(dat)
                           structure.string  quantity.kind  recorded.result
1  C=C1C(=O)O[C@H]2[C@H]1CC/C(COC(=O)c1cc3ccccc3o1)=C\CC[C@@]1(C)O[C@@H]21           GI50          1.66 µM
2  CNC(=O)c1ccc(N2C(=S)N(c3ccc(C#N)c(C(F)(F)F)c3)C(=O)C2(C)C)cc1F           GI50          20.9 µM
3  C[C@@H](O)[C@H](NC(=O)N[C@@H](CC(N)=O)c1nc([C@@H](N)CO)no1)C(=O)O           GI50         > 100 µM

Record request: GI50 value, item `COc1ccc(NC([Se])=NC23CC4CC(CC(C4)C2)C3)cc1` 0.653 µM

Record request: GI50 value, item `CCCN(CCC)c1ccc(/C=C/c2ccc3cc(OCC)ccc3n2)cc1` > 100 µM

Record request: GI50 value, item `CC(=O)N1C/C(=C/c2ccc(Cl)cc2)C(=O)/C(=C/c2ccc(Cl)cc2)C1` 1.94 µM

Record request: GI50 value, item `COc1cc(N2CCC(N3CCN(C)CC3)CC2)ccc1Nc1ncnc(Nc2ccccc2S(=O)(=O)C(C)C)n1` 3.12 µM

Record request: GI50 value, item `CCC(=O)Nc1ccccc1C#C/C=C\C#Cc1ccccc1SC` 35.1 µM

* * *

Test system: TK-10 renal
Experiment: NCI tumour cell line growth inhibition, 48 h
QUANTITY KIND: TGI

> print(dat)
                                   molecule  study.system  recorded.result
1  O=S(=O)(c1ccccc1)C(c1ccc2ccccc2n1)S(=O)(=O)c1ccccc1   TK-10 renal         > 100 µM
2          COc1cc(OC)c(SSCCCCS(=O)O)c(OC)c1   TK-10 renal          42.9 µM
3  COc1ccc(S(=O)(=O)NC(CCC(=O)NN)C(=O)NN)cc1 (stereo not drawn)   TK-10 renal         > 100 µM

Record request: TGI value, item `O=C1c2ccccc2CN1c1ccc(OCCN2CCCCC2)cc1` > 10 µM

Record request: TGI value, item `O=C1C=CC(=O)C12CCc1ccccc12` > 100 µM

Record request: TGI value, item `CCOP(=O)(OCC)/C(=C/NC(=S)c1ccncc1)C(=O)OC` > 100 µM

Record request: TGI value, item `CCn1c(SCC(=O)N/N=C/c2ccccc2)nc2ccccc2c1=O` > 91 µM

Record request: TGI value, item `CC1=C(C(=O)Nc2cc(=O)n(C)c(=O)n2C)C(c2cccc([N+](=O)[O-])c2)C(C(=O)Nc2cc(=O)n(C)c(=O)n2C)=C(C)N1` > 100 µM

* * *

System: OVCAR-3 ovarian
Experiment: NCI tumour cell line growth inhibition, 48 h
QUANTITY KIND: TGI (µM)
# value in µM; strip the unit string

> print(dat)
                                   molecule  quantity.kind  recorded.result
1        C/C(=N\Nc1cc(C)c2ccccc2n1)c1ccccn1            TGI             3.51
2  C#CC1(OC(C)=O)CCC2C3CC=C4C=C(OC(C)=O)CCC4(C)C3CCC21C (stereo not given)            TGI             41.5
3  COc1ccc(-c2c3c(cc4cc5c(cc24)OCO5)C(=O)OC3)cc1OC            TGI             18.8

// below: TGI requested for another molecule
Record request: TGI value, item `CC(C)C[C@H](NC(=O)Cn1ccc(NCc2ccccc2)cc1=O)B(O)O` 3.12

* * *

System: RXF 393 renal
Assay: NCI tumour cell line growth inhibition, 48 h; in the data active means GI50 below about 0.43 µM; inactive means the rest
Answer with one of the outcomes given here: active, inactive

Recorded results for 3 molecules are shown here.
MOLECULE	CLASSIFICATION
CCN(Cc1ccccc1)c1ccc(CO)c(Cl)c1	inactive
O=C1NC(=O)C(c2ccccc2Cl)=C1Nc1cc(Cl)c(O)c(Cl)c1	inactive
CC(=O)[CH-]C(=O)c1ccccc1.CC(=O)[CH-]C(=O)c1ccccc1.CC(C)CCCC(C)[C@H]1CCC2[C@@H]3CC=C4C[C@@H]([O-])CC[C@]4(C)C3CC[C@@]21C.CC(C)CCCC(C)[C@H]1CCC2[C@@H]3CC=C4C[C@@H]([O-])CC[C@]4(C)C3CC[C@@]21C.[Ti+4] (stereo partly drawn)	inactive

What did the test return for `CS(=O)(=O)CCNCc1ccc(-c2ccc3ncnc(Nc4ccc(OCc5ccccc5)c(Br)c4)c3c2)o1` ? inactive

What did the test return for `N#Cc1ccc2c(c1)C(=O)c1c-2n(CCCCl)c(=O)c2cc([N+](=O)[O-])ccc12` ? inactive

* * *

Test system: MOLT-4 leukemia
Assay: NCI tumour cell line growth inhibition, 48 h
QUANTITY KIND: TGI (µM)
# value in µM; strip the unit string

> print(dat)
            structure.string  quantity.kind  unit.label  recorded.result
1  CCN(CC)CCC(=O)c1ccc(C)cc1            TGI          µM             52.2

// below: TGI requested for another compound
Record request: TGI value, item `Cc1cccc2c1C(=O)[C@](C)([C@]1(C)Nc3cccc(C)c3C1=O)N2` 72.6

* * *

In this section we review reported TGI values for a set of molecules.
System: HOP-92 NSCLC
Test: NCI tumour cell line growth inhibition, 48 h

> print(dat)
                                   molecule  recorded.result
1  C[C@]12CCC(=O)C(O)=C1CC[C@@H]1C2CC[C@]2(C)NC(=O)CCC12 (stereo not given in full)         > 100 µM
2  NC[C@H]1Nc2ccccc2[C@@H](O)C1O (stereo not given in full)         > 100 µM
3  COc1ccc(/C(COc2ccc3c(=O)c(-c4ccccc4)coc3c2)=N\O)cc1            47 µM
4          CC[C@@H]1C(=O)OC[C@@H]1Cc1cncn1C         > 100 µM

// below: TGI requested for another molecule
Record request: TGI value, item `Cc1cccc(C)c1CO` > 100 µM
